Test system: M. bovis BCG Pasteur
test-method-notes: microbe, parasite or virus in culture
Format: cell-based
run-parameters: Mycobacterium tuberculosis variant bovis BCG, BCG, read-out: Antibacterial activity (MIC50) M. bovis BCG
quantity-measured: MIC50 (µM)
Numbers only; they are read as µM.

Please review the entries below; each comes with its answer.
>>> test_value("Oc1ccc(Oc2ccccc2)cc1")
387
>>> test_value("OCc1csc(-c2ccc(C(F)(F)F)cc2)n1")
398
>>> test_value("Cc1ncc(C(N)=S)[nH]1 [Fragment F3, 2-Methyl-1H-imidazole-4-carbothioamide]")
134
>>> test_value("Cc1cc2cc(N)ccc2[nH]1")
398
>>> test_value("O=C(O)c1csc2ccc(Cl)cc12")
367

Data request: Look up MIC50: CCOC(=O)c1c(N)sc(C)c1-c1ccccc1
Data returned: 267

Data request: Look up MIC50: c1ccc2c(c1)[nH]c1cnccc12 [Fragment F6, 9H-Pyrido[3,4-b]indole]
Data returned: 205

Data request: Look up MIC50: COC(=O)c1cc2ccccc2cn1 [Fragment F4, Methyl isoquinoline-3-carboxylate]
Data returned: 143

Data request: Look up MIC50: Clc1ccc2nc(N3CCCNCC3)sc2c1
Data returned: 137

Data request: Look up MIC50: O=C(O)c1ccc(-c2cccs2)s1 [Fragment F20, [2,2′-Bithiophene]-5-carboxylic acid]
Data returned: 457

Data request: Look up MIC50: Cc1ccc2c(c1)N(CCO)C(C)(C)CC2C.O (centres unmarked)
Data returned: 87

Data request: Look up MIC50: CNCc1ccccc1Oc1ccccc1 [Fragment F23, Methyl[(2-phenoxyphenyl)methyl]amine]
Data returned: 347

Data request: Look up MIC50: Cc1oc(-c2ccc(Cl)cc2)cc1C(=O)N(C)C
Data returned: 189

Data request: Look up MIC50: O=C(O)CCc1c[nH]c2ccccc12
Data returned: 98

Data request: Look up MIC50: NCc1cccc(N2CCCCC2)n1
Data returned: 345

Data request: Look up MIC50: O=C(O)c1ccc(-c2ccccc2)s1
Data returned: 397
